Item-by-item account of Top
Target: T1, human CEA on cells (MKN45, LOVO, NCI-H2122, LS174T, CT26/CEA) (human, UniProt P06731 35-685)
T1 construct: Full-length human CEA, endogenous on tumour cell lines or transduced; also called native CEA on living cells; huCEA surface protein
T1 sequence: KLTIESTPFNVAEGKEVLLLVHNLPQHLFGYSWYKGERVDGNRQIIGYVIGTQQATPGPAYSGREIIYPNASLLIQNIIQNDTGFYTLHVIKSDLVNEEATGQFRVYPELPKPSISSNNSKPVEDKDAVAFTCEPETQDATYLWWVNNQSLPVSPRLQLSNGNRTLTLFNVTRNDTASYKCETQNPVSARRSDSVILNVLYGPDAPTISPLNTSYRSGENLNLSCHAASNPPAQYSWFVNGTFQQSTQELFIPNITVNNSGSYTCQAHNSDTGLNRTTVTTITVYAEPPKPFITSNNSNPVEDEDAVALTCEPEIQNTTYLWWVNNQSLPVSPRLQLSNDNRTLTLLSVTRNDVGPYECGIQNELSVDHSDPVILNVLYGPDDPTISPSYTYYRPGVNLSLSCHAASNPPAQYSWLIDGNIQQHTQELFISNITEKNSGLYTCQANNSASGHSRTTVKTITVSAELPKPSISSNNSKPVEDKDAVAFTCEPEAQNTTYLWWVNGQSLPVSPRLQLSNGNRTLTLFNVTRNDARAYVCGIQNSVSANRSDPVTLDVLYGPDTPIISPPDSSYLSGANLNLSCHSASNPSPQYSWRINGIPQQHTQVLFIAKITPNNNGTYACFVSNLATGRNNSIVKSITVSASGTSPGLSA
Assay: flow cytometry on MKN45 cells
The answer should be a number; do not append a unit.

Observe how each entry below is paired with its result.
binder | Top
BGA6710 variant Q54E, Y57K (antibody, V domains shown, IgG format; both changes in the heavy chain) VH: QVQLVQSGAEVKKPGASVKVSCKASGYIFTSYYLHWVRQAPGQGLEWIGYINPETGKTSYAQKFQGRVTMTRDTSTSTVYMELSSLRSEDTAVYYCAREYGNYNYPLDYWGQGTLVTVSS VL: DIQMTQSPSSLSASVGDRVTITCRASENQYGYLAWYQQKPGKVPKLLIYNYKNLVEGVPSRFSGSGSGTDFTLTISSLQPEDVATYYCQHHLGTPYTFGQGTKVEIK | 902
BGA6710 (antibody, human IgG1, V domains shown, BGA2433 with W33Y (VH) and T51Y (VL); wild-type human IgG1 format) VH: QVQLVQSGAEVKKPGASVKVSCKASGYIFTSYYLHWVRQAPGQGLEWIGYINPQTGYTSYAQKFQGRVTMTRDTSTSTVYMELSSLRSEDTAVYYCAREYGNYNYPLDYWGQGTLVTVSS VL: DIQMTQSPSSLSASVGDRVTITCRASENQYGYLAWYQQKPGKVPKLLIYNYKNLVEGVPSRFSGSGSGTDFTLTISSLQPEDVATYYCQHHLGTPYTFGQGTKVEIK | 919

Next up:
Q) Form field: reported Top of BGA6710 variant L92E (antibody, V domains shown, IgG format; L92E in the light chain) VH: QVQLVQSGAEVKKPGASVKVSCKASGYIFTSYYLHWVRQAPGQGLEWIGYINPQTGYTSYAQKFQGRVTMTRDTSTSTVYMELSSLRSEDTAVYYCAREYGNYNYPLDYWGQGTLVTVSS VL: DIQMTQSPSSLSASVGDRVTITCRASENQYGYLAWYQQKPGKVPKLLIYNYKNLVEGVPSRFSGSGSGTDFTLTISSLQPEDVATYYCQHHEGTPYTFGQGTKVEIK
A) 945
